Items are presented alongside their recorded composite z-score.
target: Follistatin-related protein 3 (Homo sapiens) (UniProt O95633); assay: FSTL3 binders on small-molecule microarrays, primary screen, biochemical, small-molecule microarray, 635 nm fluorescence (AID 1105); conditions: FSTL3 binding, higher = more signal;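 also: score merges emission near 667 nm and signal to noise per printed spot across three slides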
Sequence (O95633 whole entry, looked up): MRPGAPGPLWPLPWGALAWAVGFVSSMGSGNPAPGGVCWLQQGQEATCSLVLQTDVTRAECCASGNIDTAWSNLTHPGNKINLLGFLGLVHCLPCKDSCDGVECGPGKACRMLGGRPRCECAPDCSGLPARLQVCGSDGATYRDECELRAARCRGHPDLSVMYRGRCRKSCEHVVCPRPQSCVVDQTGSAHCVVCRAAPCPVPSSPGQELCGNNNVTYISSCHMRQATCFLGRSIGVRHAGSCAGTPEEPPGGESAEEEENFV
The response must contain the number and no unit.

[Q] Sample `NC(N)=NCc1cn(CCc2c[nH]c3ccccc23)nn1` — what was its composite z-score?
[A] 1.12

[Q] `COc1ccc([Si](C)(C)[C@@H]2[C@@H](CC(=O)N3CCC[C@H]3CO)O[C@]3(C(=O)N(Cc4ccc(N5C(=O)c6cccc7cccc5c67)cc4)c4ccccc43)[C@H]2C)cc1` , same question.
[A] 1.06

[Q] `CCCC[C@@H]1C[C@H]1[C@@H](NC(=O)c1ccccc1)c1ccc(Cl)cc1` , same question.
[A] -2.35

New cases:
[Q] Sample `C=CC[C@H](OC(=O)Nc1ccc(OC)cc1)c1ccc(O)c2ccccc12` — what was its composite z-score?
[A] 1.26

[Q] CCCCN1CC=CC23O[C@@H]4C=CCOC(=O)[C@@H]4[C@H]2C(=O)N(C(C)CO)[C@@H]3C1=O (some centres not stated) , same question.
[A] -1.22

[Q] `O=C1C[C@]2(c3ccc([N+](=O)[O-])cc3)C(=O)N(Cc3ccccc3)c3cc(CO)ccc3[C@H]2N1CC12CC3CC(CC(C3)C1)C2` , same question.
[A] -0.791

[Q] `CCOC(=O)C[C@H]1[C@H](OC(=O)c2ccc(C(=O)c3ccccc3)cc2)[C@@H](NC(=O)c2ccc3ccccc3c2)c2cc(OCCCO)ccc2N1C(=O)c1ccccc1` , same question.
[A] 0.786

###

Items are presented alongside their recorded composite z-score.
assay: small-molecule binders of probe aInhba, primary screen, biochemical, small-molecule microarray, 635/667 nm fluorescence (AID 1148); details: higher = more signal;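 also: score merges 667nm spot fluorescence with signal-to-noise for antibody binding to printed compounds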
The response must contain the number and no unit.

Look over these answered cases.
[Q] Sample `CCOC(=O)C1=CC[C@@H](c2cc(Cl)ccc2Cl)N(S(=O)(=O)c2ccc(C)cc2)[C@H]1c1ccc(OC)cc1` — what was its composite z-score?
[A] 0.482

[Q] `C=CCN1C(=O)[C@]2(CC=C)N=C(c3ccc(OCCCO)cc3)O[C@@H]2c2ccccc21` , same question.
[A] 0.296

New cases:
[Q] Sample `O=C1O[C@@H](c2ccccc2)[C@@H](c2ccccc2)N2[C@@H](c3ccc(O)cc3)[C@]3(C(=O)Nc4ccc(C#CCCO)cc43)[C@@H](C(=O)NC[C@H](O)c3ccccc3)[C@H]12` — what was its composite z-score?
[A] -0.128

[Q] `COc1c(C)cc(-c2cc3c(c(-c4ccccc4)n2)[Si](C(C)C)(C(C)C)OC3)cc1C` , same question.
[A] -0.0313

###

Items are presented alongside their recorded z-score.
test: E. coli DRC41 culture turbidity changes, primary screen, E. coli filamentation inducer project, strain DRC41, OD650, 48 h (AID 1152);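 also: E. coli MC1000 strain DRC41 lacking acrAB efflux pump and sulA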; details: E. coli DRC41 (acrAB sulA), higher = more signal, called active from +8 up or from −8 down
The response must contain the number and no unit.

Look over these answered cases.
[Q] Sample `COCCCNC(=O)[C@@H]1c2ccccc2C(=O)N(Cc2ccccc2C(F)(F)F)[C@H]1c1ccc(CO)cc1` — what was its z-score?
[A] 0.938

[Q] `COc1c(C)cc(-c2cc3c(c(Cc4ccccc4)n2)[Si](C(C)C)(C(C)C)OC3)cc1C` , same question.
[A] -1.01

[Q] O=C1NC(=O)C2C1C=CC(C(O)c1ccc(Br)cc1)N2Nc1ccccn1 (stereo not drawn) , same question.
[A] -0.325

[Q] `Cc1ccc(S[C@]2(C(=O)NCc3ccccc3)CC(=O)N(C(C)C)[C@@H]2c2ccc(CO)cc2I)cc1` , same question.
[A] 0.0841

[Q] `COc1cc(CO)cc(I)c1O[C@H]1C=C(C(=O)NCCO)C[C@@H](N(CC2CCCCC2)C(=O)c2ccc(C(F)(F)F)cc2)[C@@H]1O` , same question.
[A] 1.76

New cases:
[Q] Sample `CCCCC(=C=CC[C@@H](O)c1ccc(OCCO)cc1)C[C@@H](O)COCc1ccccc1` — what was its z-score?
[A] 1.98

[Q] `CCOC(=O)C[C@H]1[C@H](OC(=O)c2ccccc2-c2ccccc2)[C@@H](NC(=O)CC(C)C)c2cc(OCCCO)ccc2N1C(=O)c1ccc2ccccc2n1` , same question.
[A] -0.518

[Q] CC(C)OC(=O)CC(=O)CC(O)c1cccc(C#N)c1 (stereo not drawn) , same question.
[A] 1.27

###

target: Torsin-1A-interacting protein 2 (Homo sapiens) (UniProt Q8NFQ8); assay: LULL1 binders on small-molecule microarray, primary screen, cell lysate, human LULL1 lysate, 635/667 nm fluorescence (AID 1092); conditions: hLULL1 lysate binding, 635 nm fluorescence, higher = more signal;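 also: probe is lysate of COS7 cells overexpressing human LULL1; score merges per-feature 667 nm fluorescence with signal-to-noise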
Sequence (Q8NFQ8 whole entry, looked up): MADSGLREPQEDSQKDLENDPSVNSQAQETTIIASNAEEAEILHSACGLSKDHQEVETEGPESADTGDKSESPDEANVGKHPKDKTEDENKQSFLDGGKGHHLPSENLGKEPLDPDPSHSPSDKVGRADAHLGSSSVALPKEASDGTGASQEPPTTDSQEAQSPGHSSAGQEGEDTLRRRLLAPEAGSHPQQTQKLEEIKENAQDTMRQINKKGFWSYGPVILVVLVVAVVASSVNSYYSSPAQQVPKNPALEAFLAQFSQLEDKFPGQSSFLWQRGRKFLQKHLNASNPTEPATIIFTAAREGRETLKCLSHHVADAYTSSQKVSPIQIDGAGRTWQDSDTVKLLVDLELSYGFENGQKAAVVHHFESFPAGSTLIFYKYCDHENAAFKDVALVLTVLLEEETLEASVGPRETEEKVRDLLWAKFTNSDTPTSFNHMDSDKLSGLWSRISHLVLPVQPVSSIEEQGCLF
Outcome: label 1 for composite z-score of at least 0.7; label 0 for anything lower.

[Q] # check: composite z-score of `CC(C)(C)OC(=O)CC[C@]1(C(=O)NCCN2CCOCC2)N=C(c2ccc(OCCCO)cc2)O[C@H]1c1ccccc1` is greater than or equal to 0.7
[A] label 1

[Q] CN1C(=O)C2C=CC(C(O)C3CCCCC3)N(N3CCCCC3)C2C1=O (configuration not stated) , same question.
[A] label 1

[Q] `O=C(O)[C@H](Cc1ccccc1)n1cc(-c2ccccn2)nn1` , same question.
[A] label 0

[Q] `C=C(CCCC)C(=O)CC[C@@H](OC(=O)c1cccnc1)c1ccccc1OCCO` , same question.
[A] label 0

New cases:
[Q] # check: composite z-score of `C=C(CCCC)C(=O)CC[C@@H](OC(=O)c1ccccc1-c1ccccc1C(=O)O)c1cccc(OCCO)c1` is greater than or equal to 0.7
[A] label 0

[Q] `O=C1c2ccccc2[C@@]2(Cc3ccccc3N(C3CC3)C2=O)[C@H](c2ccc(CO)cc2)N1C1CCCCC1` , same question.
[A] label 1

###

assay: HepG2 liver cancer cell viability effects, profiling panel, resazurin fluorescence, 24 h, PK04 Diversity Set (AID 1172); conditions: higher = more signal; also: test concentration not given here
MEASUREMENT_LABEL: z-score

[Q] Sample `COc1cc2c(cc1OC)CN(C(=O)[C@@H]1[C@H]3C(=O)O[C@H](c4ccccc4)[C@H](c4ccccc4)N3[C@H](c3ccccc3OCCO)[C@@]13C(=O)Nc1ccc(C#CC4(O)CCCCCC4)cc13)CC2` — what was its z-score?
[A] 0.529

New cases:
[Q] Sample `CO[C@H]1O[C@H](CO)[C@@H](OC(=O)c2ccc(Br)cc2)[C@@H]2OC(=O)[C@@H](Cc3ccc4ccccc4c3)C/C=C/C[C@H](Cc3ccc4ccccc4c3)C(=O)O[C@@H]12` — what was its z-score?
[A] -0.213

[Q] `C=C(CCCC)C(=O)CC[C@@H](OC(=O)c1cccnc1)c1ccccc1OCCO` , same question.
[A] 0.0748

[Q] `NCCCCCCNC(=O)[C@@H]1C[C@@H]2C(=O)N3CCC[C@H]3C(=O)N2[C@@H]1c1ccc(O)cc1` , same question.
[A] -0.0529

[Q] `O=C1C[C@@](C(=O)NCC(F)(F)F)(c2ccc([N+](=O)[O-])cc2)[C@@H](c2ccc(CO)cc2)N1C1CCCCC1` , same question.
[A] -0.289

[Q] `CN(C)CCCNC(=O)[C@@H]1c2ccccc2C(=O)N(Cc2ccc(OC(F)(F)F)cc2)[C@H]1c1ccc(CO)cc1` , same question.
[A] -0.39

###

Items are presented alongside their recorded composite z-score.
experiment: small-molecule microarray binders of probe aNog, primary screen, biochemical, biotinylated probe, 635/667 nm fluorescence (AID 1115); settings: higher = more signal;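 also: probe is biotinylated aNog protein used at 0.15 µg/mL for 1 h at 4 C; z-score combines 667 nm fluorescence of each spot with its signal to noise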
The response must contain the number and no unit.

[Q] Sample CCN(CC)c1ccc(N2CC=CC34O[C@@H]5/C=C\CCC(C)OC(=O)C5[C@H]3C(=O)N(CCO)[C@@H]4C2=O)cc1 (stereo partly drawn) — what was its composite z-score?
[A] -0.0503

[Q] `[N-]=[N+]=NCc1ccccc1[C@H]1OC(c2ccc(OCCCO)cc2)=N[C@@]1(CCS(=O)(=O)c1ccccc1)C(N)=O` , same question.
[A] 1.4

[Q] `Cc1ccc(S[C@]2(C(=O)NCC(C)C)CC(=O)N(Cc3ccccc3Cl)[C@@H]2c2ccc(CO)cc2I)cc1` , same question.
[A] 0.515

[Q] `CCCCC(=C=CC[C@@H](O)c1ccc(OCCO)cc1)C[C@@H](O)COCc1ccccc1` , same question.
[A] -0.213

New cases:
[Q] Sample `C[n+]1ccc(CCCO)cc1` — what was its composite z-score?
[A] -0.253

[Q] `O=C(CCCCCCC(=O)Nc1ccccc1)N/N=C/c1ccccc1` , same question.
[A] -0.216

[Q] C=C1C2CC3C(=C4C(CO[C@@H]4[C@H]4CCCN4S(=O)(=O)c4ccccc4[N+](=O)[O-])C4C(=O)N(C)C(=O)C34)CC2C(=O)N1C (stereo partly drawn) , same question.
[A] 0.0473

[Q] `COc1ccc([Si](C)(C)[C@H]2[C@H](CCn3cc([C@H](O)c4ccccc4)nn3)O[C@@]3(C(=O)N(Cc4cccc(N5C(=O)c6cccc7cccc5c67)c4)c4ccccc43)[C@@H]2C)cc1` , same question.
[A] 0.206
